Record form. Attribute: ΔH. Fill in for each entry.
- assayedSystem: Cp149 reassembled capsids (Hepatitis B virus genotype D subtype ayw)
- Sequence (P03146 1-149): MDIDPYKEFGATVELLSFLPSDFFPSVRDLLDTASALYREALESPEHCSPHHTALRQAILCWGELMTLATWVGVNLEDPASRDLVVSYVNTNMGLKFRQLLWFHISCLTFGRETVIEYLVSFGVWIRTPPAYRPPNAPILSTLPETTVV
- protocolDescription: biochemical
- Type: binding, Hepatitis B virus (HBV)
- protocolConditions: ITC, 50 mM HEPES pH 7.5, 298 K
Numbers only, in kcal/mol.

Check out these entries, answers already filled in.
{"chemicalString": "CCCCCCc1ccc(O)cc1", "ΔH / kcal/mol": -6.0}
{"chemicalString": "CC(C)c1ccc(O)cc1", "ΔH / kcal/mol": -5}
{"chemicalString": "CCCc1ccc(O)cc1", "ΔH / kcal/mol": -7}
{"chemicalString": "CCC(C)(C)c1ccc(O)cc1", "ΔH / kcal/mol": -12.7}

Challenge: I would be grateful if you could share the reported ΔH for CC(C)(C)CC(C)(C)c1ccc(O)cc1 .
Response given: -4.79

====

- assayedSystem: Cp149 reassembled capsids (Hepatitis B virus genotype D subtype ayw)
- protocolDescription: biochemical
- Type: binding, Hepatitis B virus (HBV)
- protocolConditions: KD, ITC, 50 mM HEPES pH 7.5, 298 K
measuredProperty: Kd (µM)
Give bare numbers, in µM.

Check out these entries, answers already filled in.
{"compound": "CCCCCCc1ccc(O)cc1 [Compound 2a, 4-hexylphenol]", "readoutUnit": "µM", "Kd": 13}
{"compound": "CC(C)(C)CC(C)(C)c1ccc(O)cc1 [Compound 1c, 4-tert-octylphenol]", "readoutUnit": "µM", "Kd": 7.5}
{"compound": "CC(C)c1ccc(O)cc1 [Compound 4a, 4-isopropylphenol]", "readoutUnit": "µM", "Kd": 18}
{"compound": "CCCc1ccc(O)cc1 [Compound 4b, 4-propylphenol]", "readoutUnit": "µM", "Kd": 14}

Now take the following compound into account.
Challenge: Find Kd (Cp149 reassembled capsids (Hepatitis B virus genotype D subtype ayw)) for the entry CCC(C)(C)c1ccc(O)cc1 [Compound 4c, 4-tert-amylphenol]
Response given: 30
